# assay.procedure: Bioavailability in rat at 1 mg/kg co-administered with 4 mg/kg ritonavir
# Type: ADME, organism-based
# setup.conditions: in vivo
measured.parameter: bioavailability

If you can, please state the reported bioavailability value of Cc1nc(COc2ccc(C[C@H](NC(=O)O[C@H]3CO[C@H]4OCC[C@H]43)[C@H](O)CN(CC(C)C)S(=O)(=O)c3ccc4c(c3)OCO4)cc2)cs1 . 62%

----------
# assay.procedure: Oral bioavailability in rat at 1 mg/kg
# Type: ADME, organism-based
# setup.conditions: in vivo
// reported bioavailability for each item listed
Please respond with the number in % and leave the unit unwritten.

INSERT INTO measurements (line_notation, measured_parameter, reported_result) VALUES
  ('Cc1nc(COc2ccc(C[C@H](NC(=O)O[C@H]3CO[C@H]4OCC[C@H]43)[C@H](O)CN(CC(C)C)S(=O)(=O)c3ccc4c(c3)OCO4)cc2)cs1', 'bioavailability', 10),
  ('CC(C)CN(C[C@@H](O)[C@H](Cc1ccc(OCCc2cccs2)cc1)NC(=O)O[C@H]1CO[C@H]2OCC[C@H]21)S(=O)(=O)c1ccc2c(c1)OCO2', 'bioavailability', 15);

If you can, please state the reported bioavailability value of CC(C)CN(C[C@@H](O)[C@H](Cc1ccc(OCc2ccccn2)cc1)NC(=O)O[C@H]1CO[C@H]2OCC[C@H]21)S(=O)(=O)c1ccc2c(c1)OCO2 . 21

----------
# Tested on: MT4
# assay.procedure: Antiviral activity against HIV1 EP13 in MT4 cells
# Assay type: functional, cell-based
# setup.conditions: Homo sapiens
measured.parameter: IC50 (nM)
Please respond with the number in nM and leave the unit unwritten.

INSERT INTO results (line_notation, reported_result) VALUES
  ('CC(C)CN(C[C@@H](O)[C@H](Cc1ccc(Oc2ccc(F)cc2)cc1)NC(=O)O[C@H]1CO[C@H]2OCC[C@H]21)S(=O)(=O)c1ccc2c(c1)OCO2', 8.1);

If you can, please state the reported IC50 value of CC(C)CN(C[C@@H](O)[C@H](Cc1ccc(Oc2ccc(CNS(C)(=O)=O)cc2)cc1)NC(=O)O[C@H]1CO[C@H]2OCC[C@H]21)S(=O)(=O)c1ccc2c(c1)OCO2 . 5.3

If you can, please state the reported IC50 value of COC(=O)N[C@H](C(=O)N[C@@H](Cc1ccccc1)[C@@H](O)CN(Cc1ccc(-c2ccccn2)cc1)NC(=O)[C@@H](NC(=O)OC)C(C)(C)C)C(C)(C)C . 93
